Experiment: Pharmacokinetic study in male SD rats (intravenous, oral, oral co-administration with verapamil)
Type: in vivo, Sprague–Dawley rats
Details: oral 20 mg/kg
reportedEndpoint: Cmax (ng/mL)

- C[C@@]12C[C@@]3(O)O[C@@H](O1)[C@]1(COC(=O)c4ccccc4)[C@H]3C[C@@]12O[C@@H]1O[C@H](CO)[C@@H](O)[C@H](O)[C@H]1O: 100

====

Assay: Pharmacokinetic study in male SD rats (intravenous, oral, oral co-administration with verapamil)
Assay type: in vivo, Sprague–Dawley rats
Details: male, Sprague-Dawley, rat, plasma, po, 20 mg/kg, oral 20 mg/kg co-administration with verapamil (50 mg/kg), n = 5
Procedure: The animal experiment was approved by the Experimental Animal Ethics Committee of Shanghai University of Traditional Chinese Medicine (the Ethics Number: PZSHUTCM201016015). […] The plasma drug concentration of the PF was quantitated, according to the calibration curve, by the ratio of the analyte-to-IS peak areas obtained for each sample. […] Subsequently, the main pharmacokinetic parameters were analyzed by an independent sample t-test. […]
reportedEndpoint: half-life

• C[C@@]12C[C@@]3(O)O[C@@H](O1)[C@]1(COC(=O)c4ccccc4)[C@H]3C[C@@]12O[C@@H]1O[C@H](CO)[C@@H](O)[C@H](O)[C@H]1O = 42 min

====

Assay: Caco-2 Transwell transport of PF with and without verapamil
Type: in vitro ADME
Details: human, Caco-2; absence of verapamil
reportedEndpoint: efflux ratio at 120 min, 10 µM

* C[C@@]12C[C@@]3(O)O[C@@H](O1)[C@]1(COC(=O)c4ccccc4)[C@H]3C[C@@]12O[C@@H]1O[C@H](CO)[C@@H](O)[C@H](O)[C@H]1O [PF, paeoniflorin] | 1.52

====

Experiment: Pharmacokinetic study in male SD rats (intravenous, oral, oral co-administration with verapamil)
Format: in vivo, Sprague–Dawley rats
Conditions: male, Sprague-Dawley, rat, plasma, po, 20 mg/kg, oral mono-administration 20 mg/kg, n = 5
Protocol: The animal experiment was approved by the Experimental Animal Ethics Committee of Shanghai University of Traditional Chinese Medicine (the Ethics Number: PZSHUTCM201016015). […] The plasma drug concentration of the PF was quantitated, according to the calibration curve, by the ratio of the analyte-to-IS peak areas obtained for each sample. […] Subsequently, the main pharmacokinetic parameters were analyzed by an independent sample t-test. […]
reportedEndpoint: AUC(0-inf)

- C[C@@]12C[C@@]3(O)O[C@@H](O1)[C@]1(COC(=O)c4ccccc4)[C@H]3C[C@@]12O[C@@H]1O[C@H](CO)[C@@H](O)[C@H](O)[C@H]1O: 157 ng·h/mL

====

Test: Pharmacokinetic study in male SD rats (intravenous, oral, oral co-administration with verapamil)
Type: in vivo, Sprague–Dawley rats
Conditions: male, Sprague-Dawley, rat, plasma, po, 10 mg/kg, oral mono-administration 10 mg/kg, n = 5
reportedEndpoint: AUC(0-t) (ng·h/mL)

* C[C@@]12C[C@@]3(O)O[C@@H](O1)[C@]1(COC(=O)c4ccccc4)[C@H]3C[C@@]12O[C@@H]1O[C@H](CO)[C@@H](O)[C@H](O)[C@H]1O [PF, paeoniflorin] | 82.3

====

Test: Pharmacokinetic study in male SD rats (intravenous, oral, oral co-administration with verapamil)
Type: in vivo, Sprague–Dawley rats
Conditions: male, Sprague-Dawley, rat, plasma, po, 20 mg/kg, oral mono-administration 20 mg/kg, n = 5
reportedEndpoint: half-life (min)

• C[C@@]12C[C@@]3(O)O[C@@H](O1)[C@]1(COC(=O)c4ccccc4)[C@H]3C[C@@]12O[C@@H]1O[C@H](CO)[C@@H](O)[C@H](O)[C@H]1O = 30

====

Test: Pharmacokinetic study in male SD rats (intravenous, oral, oral co-administration with verapamil)
Assay type: in vivo, Sprague–Dawley rats
Conditions: male, Sprague-Dawley, rat, plasma, po, 20 mg/kg, oral mono-administration 20 mg/kg vs intravenous 2 mg/kg; read-out: F
reportedEndpoint: bioavailability (%)

* C[C@@]12C[C@@]3(O)O[C@@H](O1)[C@]1(COC(=O)c4ccccc4)[C@H]3C[C@@]12O[C@@H]1O[C@H](CO)[C@@H](O)[C@H](O)[C@H]1O [PF, paeoniflorin] | 0.6
